System Tested: T1, human CTLA4 (human)
T1 construct: also called hCTLA4; hCTLA4-His-BAP
T1 sequence (chain, as listed by the source limits assumed): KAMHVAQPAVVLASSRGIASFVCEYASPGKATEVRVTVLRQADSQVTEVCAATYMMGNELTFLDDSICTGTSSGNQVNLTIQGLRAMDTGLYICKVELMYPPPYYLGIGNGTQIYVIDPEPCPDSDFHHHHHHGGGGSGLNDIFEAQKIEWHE
Experimental Details: SPR Biacore T200, 37C, antibody captured, ATP 10 uM

Binder: 04H1654-G1m/04L1606-lam1 (antibody, human IgG1, lambda, V domains shown) VH: QVQLVESGGGVVQPGGSLRLSCAASGFTFSSKTMNWVRQAPGKGLEWVSSISTQSHYIYYARSVRGRFTISRDNAKNSLYLQMNSLRAEDTAVYYCARYGKREDMLWVFDYWGQGTLVTVSS VL: QSALTQPPSASGSPGQSVTISCQGPSTGVGDYNWVHWYQQHPGKAPKLMIYFTSKKPSGVPDRFSGSKSGNTASLTVSGLQAEDEADYYCQTYAAPLGPMFGGGTKLTVLG
Kd: 25 nM
--
Binder: 04H1389-G1m/04L1086-lam1 (antibody, human IgG1, lambda, V domains shown) VH: EVQLVESGGGLVKPGGSLRLSCAASGFTFSSKTMNWVRQAPGKGLEWVSSISTQSHYIYYAESVKGRFTISRDNAKNSLYLQMNSLRAEDTAVYYCARYGKREDMLWVFDYWGQGTLVTVSS VL: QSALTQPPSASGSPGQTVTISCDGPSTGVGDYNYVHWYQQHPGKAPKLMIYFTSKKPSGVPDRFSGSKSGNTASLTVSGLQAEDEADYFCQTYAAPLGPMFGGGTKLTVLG
Kd: 37 nM
--
Binder: 04H1656-G1m/04L1606-lam1 (antibody, human IgG1, lambda, V domains shown) VH: QVQLVESGGGVVQPGGSLRLSCAASGFTFSSKTMNWVRQAPGKGLEWVSSISTQSHYIYYAESVRGRFTISRDNAKNSLYLQMNSLRAEDTAVYYCARYGAREDMLWVFDYWGQGTLVTVSS VL: QSALTQPPSASGSPGQSVTISCQGPSTGVGDYNWVHWYQQHPGKAPKLMIYFTSKKPSGVPDRFSGSKSGNTASLTVSGLQAEDEADYYCQTYAAPLGPMFGGGTKLTVLG
Kd: 19 nM
--
Binder: 04H1637-G1m/04L1581-lam1 (antibody, human IgG1, lambda, V domains shown) VH: QVQLVESGGGLVKPGGSLRLSCAASGFTFSSKTMNWVRQAPGKGLEWVSSISTQSHYIYYAESVRGRFTISRDNAKNSLYLQMNSLRAEDTAVYYCARYGKREDMLWVFDYWGQGTLVTVSS VL: QSALTQPPSASGSPGQSVTISCQGPSTGVGDYTWVHWYQQHPGKAPKLMIYFTIKKPKGVPDRFSGSKSGNTASLTVSGLQAEDEADYYCQTYAAPLGPMFGGGTKLTVLG
Kd: 17 nM
